Experiment: qHTS Assay for Inhibitors of Fructose-1,6-bisphosphate Aldolase from Giardia Lamblia: Coupling assay counterscreen; note: % is set by controls: 0 for no effect and ±100 for the full control effect
Conditions: coupling enzyme system counterscreen, AmpLite Red fluorescence; at 58.2 µM (top of the series)
About 2,000 (0.69%) of roughly 290,000 compounds were called active. This is one part of a sample in which actives are shown more often than they occur.
activity change, negative = inhibition values for the molecules below.

molecule: CCOC(=O)c1c(-c2ccc(C)cc2)csc1/N=C(\C)C1=C(O)c2ccccc2C1=O
activity change, negative = inhibition, %: 3.5
--
molecule: O=[N+]([O-])c1ccc(C=Nc2ccc(Cl)cc2Cl)s1
activity change, negative = inhibition, %: -32
--
molecule: C[C@H]1Cc2c(-c3ccccc3)nc3c(c2CO1)CN(S(=O)(=O)c1ccc(Cl)c2nonc12)CC3
activity change, negative = inhibition, %: 2.12
--
molecule: CNC(=S)NNC(=O)c1oc2nc(-c3ccccc3)cc(-c3ccco3)c2c1N
activity change, negative = inhibition, %: -33.1
--
molecule: O=S(=O)(Nc1cccc(Oc2ccc(Cl)cc2)n1)c1ccc(F)cc1
activity change, negative = inhibition, %: 3.65
--
molecule: C=C(C)CNC(=S)N/N=C/c1ccccc1OCC(=O)O
activity change, negative = inhibition, %: 7.3
--
molecule: Cc1c(Cl)cccc1NC(=O)NCc1ccc(C)n1C
activity change, negative = inhibition, %: 0.306
--
molecule: CC(C)(C)c1cc(C(=O)N/N=C/c2ccc([N+](=O)[O-])s2)n[nH]1
activity change, negative = inhibition, %: 1.27
--
molecule: NNC(=O)c1oc2nc(-c3ccccc3)cc(-c3ccco3)c2c1N
activity change, negative = inhibition, %: -5.04
--
molecule: Cc1ccc(C2C3=C(Nc4[nH]n(-c5ccccc5)c(=O)c42)c2ccccc2C3=O)cc1 (centres undefined)
activity change, negative = inhibition, %: -44
--
molecule: Cc1ccc(C23CC4CC(CC(C(=O)NCC(=O)O)(C4)C2)C3)cc1
activity change, negative = inhibition, %: 6.61
--
molecule: Cc1ccc(-c2ccnc3[nH]n(-c4ccccc4)c(=O)c23)cc1
activity change, negative = inhibition, %: 2.09
--
molecule: CS(=O)(=O)c1sc2nc(-c3ccccc3)cc(-c3ccccc3)c2c1N
activity change, negative = inhibition, %: 1.12
--
molecule: CCN(CC)c1ccc(C(=O)Nn2c(C)nc3ccccc3c2=O)cc1
activity change, negative = inhibition, %: 2.59
--
molecule: C[C@@H](O)[C@@H]1NC(=O)[C@H](CCCCN)NC(=O)[C@H](Cc2c[nH]c3ccccc23)NC(=O)[C@H](Cc2ccccc2)NC(=O)[C@H](Cc2ccccc2)NC(=O)[C@H](CC(N)=O)NC(=O)[C@H](CCCCN)NC(=O)[C@@H](NC(=O)[C@@H]2CCCN2)CSSC[C@@H](C(=O)N[C@@H](CCCCN)C(=O)O)NC(=O)[C@H](CO)NC(=O)[C@H](CO)NC(=O)[C@H](Cc2ccccc2)NC1=O
activity change, negative = inhibition, %: -0.403
--
molecule: COCCNC(=O)CN(Cc1ccco1)C(=O)CCC(=O)Nc1nccs1
activity change, negative = inhibition, %: 0.963
--
molecule: C=CCc1ccccc1OCC(=O)N/N=C/c1ccccc1OCC
activity change, negative = inhibition, %: -30.1
--
molecule: COc1ccc(CCC(C)N2CCc3ccccc3C2)cc1 (centres undefined)
activity change, negative = inhibition, %: -2.37
--
molecule: O=C1C[C@@H](c2ccc3ccccc3c2)N1S(=O)(=O)c1ccccc1[N+](=O)[O-]
activity change, negative = inhibition, %: 11.1
